experiment: Toxicity liver stage against HepG2, at 10uM; format: cell-based; parameters: test concentration 10 uM, cell line HepG2-A16-CD81EGFP; details: human, HepG2-A16-CD81EGFP cells; read-out: INHIBITION
Each record here notes measured cytotoxicity at 10 µM.
Use % as the unit, but write only the number.

Sample records with cytotoxicity at 10 µM:
CC(COCC(F)(F)F)NC(=O)c1ccc(-c2ccco2)[nH]c1=O (stereo unspecified); -20.1
c1cncc(OCC2CN(Cc3nccs3)Cc3nccn3C2)c1 (stereo unspecified); 6.9
CC(=O)N(C)CC(=O)NCC1(c2c(F)cccc2F)CCCC1; -3.86
COc1ccc(Oc2ncccc2C(F)(F)F)cc1CN1CCCC1; 4.22

Name the recorded cytotoxicity at 10 µM for Cc1cccc(C(=O)N2CCCC(Cc3cncc4ccccc34)C2)n1 (stereo unspecified) . -19

Follow-up item: `CCN1C[C@H]2CCN(c3ncccn3)CC[C@H]2S1(=O)=O` -7.08
